Source listed as PubChem BioAssay (Tox21).

Experiment: qHTS RealTime-Glo MT Cell Viability Assay in HepG2 cells - 0 hour (AID 1224889); further: on the % scale 0 is the no-effect control and ±100 the full control effect; nearly all actives have a fitted effect of over 50% in size
Details: RealTime-Glo luminescence; series mostly up to 76.8 µM
Results filed as inconclusive are left out. Calls of active or inactive are those of the source. The call rests on the fitted dose curve; in most records, active means well fitted cell-killing curve with a large enough effect in the repeat runs; inconclusive means weak or mixed curves, or effect the other way; inactive means flat fitted curve, though single readings scatter.
MEASURE: activity change, negative = cytotoxicity

Record excerpt, results attached:
COMPOUND	MEASURE	TEST_VALUE
O=C(O)c1cccc(C[C@@H]2COc3ccc(OCc4nc5cc(F)ccc5s4)cc3[C@@H]2O)c1	activity change, negative = cytotoxicity	inactive
CC/C=C\C/C=C\C/C=C\CCCCCCCC(=O)OCC	activity change, negative = cytotoxicity	inactive
COc1cc(S(=O)(=O)Nc2ccccc2)c(OC)cc1N	activity change, negative = cytotoxicity	inactive
c1ccc2sc(SSc3nc4ccccc4s3)nc2c1	activity change, negative = cytotoxicity	0.525% [at 15.8 µM] (inactive)
CCOC(=O)N1CCC(Nc2ccc(Cl)cc2N)CC1	activity change, negative = cytotoxicity	inactive

Next compound, activity change, negative = cytotoxicity to be filled in.
Asked: Tell me the measured activity change, negative = cytotoxicity of COC(CC(C)CCCC(C)(C)O)OC (centres undefined) , please.
Given back: inactive
